# credit: ChEMBL document CHEMBL2321758

Below is a list of entries, each paired with its recorded fraction unbound value.
# testDescription: Fraction unbound in rat plasma
# Format: ADME, cell-free
Output spec: single numeric token, no unit.

CS(=O)(=O)C1(c2cc(N3CCOCC3)nc(-c3cccc4[nH]ccc34)n2)CCNCC1: 0.4
CS(=O)(=O)C1(c2cc(N3CCOCC3)nc(-c3cccc4[nH]ccc34)n2)CC1: 0.23
CS(=O)(=O)C1(c2cc(N3CCOCC3)nc(-c3cccc4[nH]ccc34)n2)CCOCC1: 0.25

// next item, fraction unbound requested
Data request: Could you share which fraction unbound value was measured for CC(C)(c1cc(N2CCOCC2)nc(-c2cccc3[nH]ccc23)n1)S(C)(=O)=O ?
Data returned: 0.2
